# SYSTEM_NAME: cGMP-inhibited 3',5'-cyclic phosphodiesterase 3A (Homo sapiens, UniProt Q14432); also: assay procedure not described here
# Sequence (Q14432 whole entry): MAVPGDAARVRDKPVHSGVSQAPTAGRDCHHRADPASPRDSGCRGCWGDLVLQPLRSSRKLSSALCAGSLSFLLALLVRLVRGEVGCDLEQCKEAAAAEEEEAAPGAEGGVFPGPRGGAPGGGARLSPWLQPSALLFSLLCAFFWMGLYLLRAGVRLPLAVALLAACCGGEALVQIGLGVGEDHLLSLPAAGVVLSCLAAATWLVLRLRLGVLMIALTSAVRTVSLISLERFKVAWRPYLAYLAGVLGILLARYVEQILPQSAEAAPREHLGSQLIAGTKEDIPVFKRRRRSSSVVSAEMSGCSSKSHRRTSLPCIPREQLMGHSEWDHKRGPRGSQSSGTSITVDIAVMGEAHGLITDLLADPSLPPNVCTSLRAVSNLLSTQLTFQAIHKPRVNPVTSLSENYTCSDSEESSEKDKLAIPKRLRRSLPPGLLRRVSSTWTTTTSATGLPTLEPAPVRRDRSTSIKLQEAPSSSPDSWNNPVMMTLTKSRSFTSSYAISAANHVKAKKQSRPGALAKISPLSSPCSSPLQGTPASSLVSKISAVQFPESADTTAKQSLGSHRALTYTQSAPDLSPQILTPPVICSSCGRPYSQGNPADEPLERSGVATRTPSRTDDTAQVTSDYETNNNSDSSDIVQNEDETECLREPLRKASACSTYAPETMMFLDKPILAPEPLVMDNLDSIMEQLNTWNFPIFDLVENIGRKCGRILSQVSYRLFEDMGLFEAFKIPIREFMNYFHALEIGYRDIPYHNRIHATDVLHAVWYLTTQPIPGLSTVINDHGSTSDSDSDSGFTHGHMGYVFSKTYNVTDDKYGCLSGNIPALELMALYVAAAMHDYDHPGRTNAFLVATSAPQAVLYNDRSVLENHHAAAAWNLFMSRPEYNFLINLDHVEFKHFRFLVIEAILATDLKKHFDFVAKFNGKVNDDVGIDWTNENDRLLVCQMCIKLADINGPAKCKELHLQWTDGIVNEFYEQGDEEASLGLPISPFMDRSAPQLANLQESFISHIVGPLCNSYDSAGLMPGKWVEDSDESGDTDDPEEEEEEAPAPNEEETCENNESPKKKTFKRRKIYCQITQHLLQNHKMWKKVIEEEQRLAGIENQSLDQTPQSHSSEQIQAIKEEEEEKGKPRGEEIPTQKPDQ
# Assay type: functional
PROPERTY_MEASURED: AC50

- COMPOUND: "C[C@]12CCC(=O)C(O)=C1CC[C@@H]1[C@@H]2CC[C@]2(C)C(=O)CC[C@@H]12"
  SYSTEM_NAME: "cGMP-inhibited 3',5'-cyclic phosphodiesterase 3A (Homo sapiens, UniProt Q14432)"
  PROPERTY_MEASURED: "AC50"
  EXPERIMENTAL_VALUE: "> 30 µM"

Give reported AC50 value for CC(=O)[C@@]1(O)CC[C@H]2[C@@H]3C=C(Cl)C4=CC(=O)[C@@H]5C[C@@H]5[C@]4(C)[C@H]3CC[C@@]21C
16 µM

Give reported AC50 value for CCC(=O)O[C@]1(C(=O)SCF)[C@H](C)C[C@H]2[C@@H]3C[C@H](F)C4=CC(=O)C=C[C@]4(C)[C@@]3(F)[C@@H](O)C[C@@]21C [FLUTICASONE PROPIONATE]
> 30 µM

Give reported AC50 value for Oc1ccc2c(c1)[C@@]13CCCC[C@@]1(O)[C@@H](C2)N(CC1CCC1)CC3
> 30 µM

###

# SYSTEM_NAME: Adenosine receptor A3 (Homo sapiens, UniProt P0DMS8); also: assay procedure not described here
# Sequence (P0DMS8 whole entry): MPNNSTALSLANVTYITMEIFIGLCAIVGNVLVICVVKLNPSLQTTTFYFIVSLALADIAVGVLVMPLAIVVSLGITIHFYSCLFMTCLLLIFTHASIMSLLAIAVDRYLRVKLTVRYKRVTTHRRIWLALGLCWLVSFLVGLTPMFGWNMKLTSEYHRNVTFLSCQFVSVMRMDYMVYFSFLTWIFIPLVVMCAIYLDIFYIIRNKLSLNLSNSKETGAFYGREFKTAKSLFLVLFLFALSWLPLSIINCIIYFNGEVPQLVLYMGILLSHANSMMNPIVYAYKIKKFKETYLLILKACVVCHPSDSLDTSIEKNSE
PROPERTY_MEASURED: AC50

Example results:
- MOLECULE: "CC(C)(C)NC[C@H](O)COc1cccc2c1CCCC2=O [LEVOBUNOLOL]"
  PROPERTY_MEASURED: "AC50"
  EXPERIMENTAL_VALUE: "> 30 µM"
- MOLECULE: "CN(C)[C@@H]1C(O)=C(C(N)=O)C(=O)[C@@]2(O)C(O)=C3C(=O)c4c(O)ccc(Cl)c4[C@@](C)(O)[C@H]3C[C@@H]12 [CHLORTETRACYCLINE]"
  PROPERTY_MEASURED: "AC50"
  EXPERIMENTAL_VALUE: "> 30 µM"
- MOLECULE: "CC(CN1CC(=O)NC(=O)C1)N1CC(=O)NC(=O)C1 (centres undefined) [RAZOXANE]"
  PROPERTY_MEASURED: "AC50"
  EXPERIMENTAL_VALUE: "> 30 µM"

In the following, a different molecule is considered.
For Adenosine receptor A3 (Homo sapiens, UniProt P0DMS8), give AC50 of the listed molecule: Nc1ccc(C(=O)Oc2ccccc2)c(O)c1 [PHENYL AMINOSALICYLATE]
18.4 µM

###

Quick record: AC50, Neuronal acetylcholine receptor subunit alpha-4 (Homo sapiens).

Example results:
- MOLECULE: "CN(C(=O)c1c(O)c2ccccc2n(C)c1=O)c1ccccc1 [ROQUINIMEX]"
  AC50: "> 30 µM"
- MOLECULE: "CC(C)(C)C(=O)OCC(=O)[C@H]1CC[C@H]2[C@@H]3CCC4=CC(=O)CC[C@]4(C)[C@H]3CC[C@]12C [DESOXYCORTICOSTERONE PIVALATE]"
  AC50: "> 10 µM"
- MOLECULE: "O=C1CCc2cc(OCCCCc3nnnn3C3CCCCC3)ccc2N1 [CILOSTAZOL]"
  AC50: "> 30 µM"
- MOLECULE: "CCCC(CCC)C(N)=O [VALPROMIDE]"
  AC50: "> 10 µM"
- MOLECULE: "CC(=O)O[C@]1(C(C)=O)CC[C@H]2[C@@H]3C=C(C)C4=CC(=O)CC[C@@H]4[C@H]3CC[C@@]21C [NOMEGESTROL ACETATE]"
  AC50: "> 30 µM"
- MOLECULE: "CC(S)C(=O)NCC(=O)O (stereo not given) [TIOPRONIN]"
  AC50: "> 30 µM"

For Neuronal acetylcholine receptor subunit alpha-4 (Homo sapiens), give AC50 of the listed molecule: CCOC(=O)c1cncn1[C@H](C)c1ccccc1 [ETOMIDATE]
> 10 µM

For Neuronal acetylcholine receptor subunit alpha-4 (Homo sapiens), give AC50 of the listed molecule: Cc1cnc(C(=O)NCCc2ccc(S(=O)(=O)NC(=O)NC3CCCCC3)cc2)cn1 [GLIPIZIDE]
> 10 µM

For Neuronal acetylcholine receptor subunit alpha-4 (Homo sapiens), give AC50 of the listed molecule: CCOC(=O)C1=C(C)NC(C)=C(C(=O)OC)C1c1cccc([N+](=O)[O-])c1 (stereo not given) [NITRENDIPINE]
> 10 µM

For Neuronal acetylcholine receptor subunit alpha-4 (Homo sapiens), give AC50 of the listed molecule: OC1(c2ccc(Cl)cc2)c2ccccc2C2=NCCN21 (stereo not given) [MAZINDOL]
> 30 µM

###

# SYSTEM_NAME: 5-hydroxytryptamine receptor 2C (Homo sapiens, UniProt P28335); also: assay procedure not described here
# Sequence (P28335 whole entry): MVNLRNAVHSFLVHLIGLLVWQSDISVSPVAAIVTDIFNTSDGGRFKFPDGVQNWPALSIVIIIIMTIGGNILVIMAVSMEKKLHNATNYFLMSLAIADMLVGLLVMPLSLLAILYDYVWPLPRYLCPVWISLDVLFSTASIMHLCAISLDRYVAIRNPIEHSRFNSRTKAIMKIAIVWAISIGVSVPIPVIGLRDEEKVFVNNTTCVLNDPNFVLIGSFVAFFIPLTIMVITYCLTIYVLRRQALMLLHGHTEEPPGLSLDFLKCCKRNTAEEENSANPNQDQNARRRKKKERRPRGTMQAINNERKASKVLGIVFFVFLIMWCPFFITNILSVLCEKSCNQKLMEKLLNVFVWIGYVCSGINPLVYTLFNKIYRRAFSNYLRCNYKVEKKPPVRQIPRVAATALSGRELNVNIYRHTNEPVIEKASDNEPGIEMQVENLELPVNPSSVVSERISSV
PROPERTY_MEASURED: AC50

- MOLECULE: "CC(C(=O)O)c1ccc(CC2CCCC2=O)cc1 (stereo not drawn) [LOXOPROFEN]"
  SYSTEM_NAME: "5-hydroxytryptamine receptor 2C (Homo sapiens, UniProt P28335)"
  AC50: "> 30 µM"
- MOLECULE: "CCC(=O)O[C@]1(C(=O)SCF)[C@H](C)C[C@H]2[C@@H]3C[C@H](F)C4=CC(=O)C=C[C@]4(C)[C@@]3(F)[C@@H](O)C[C@@]21C [FLUTICASONE PROPIONATE]"
  SYSTEM_NAME: "5-hydroxytryptamine receptor 2C (Homo sapiens, UniProt P28335)"
  AC50: "> 30 µM"

In the following, a different molecule is considered.
Give reported AC50 value for CN(C)CC[C@@H](c1ccc(Cl)cc1)c1ccccn1 [DEXCHLORPHENIRAMINE]
28 µM

###

List of AC50 values.
# SYSTEM_NAME: 5-hydroxytryptamine receptor 1A (Homo sapiens, UniProt P08908); also: assay procedure not described here
# Sequence (P08908 whole entry): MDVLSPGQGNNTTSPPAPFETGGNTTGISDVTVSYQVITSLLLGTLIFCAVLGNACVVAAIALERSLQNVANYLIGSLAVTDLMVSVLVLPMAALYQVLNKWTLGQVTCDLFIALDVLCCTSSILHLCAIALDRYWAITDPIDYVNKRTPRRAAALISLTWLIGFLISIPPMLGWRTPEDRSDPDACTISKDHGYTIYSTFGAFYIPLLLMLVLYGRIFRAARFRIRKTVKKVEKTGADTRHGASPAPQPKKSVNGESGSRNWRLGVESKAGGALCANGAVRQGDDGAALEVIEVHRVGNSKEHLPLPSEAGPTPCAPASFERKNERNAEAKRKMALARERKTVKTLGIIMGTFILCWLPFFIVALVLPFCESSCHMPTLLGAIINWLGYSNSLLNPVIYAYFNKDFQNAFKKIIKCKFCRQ
# Format: functional, cell-based

Example results:
- COMPOUND: "C=CCNc1nc(NCC=C)nc(N2CCN(C(c3ccc(F)cc3)c3ccc(F)cc3)CC2)n1"
  AC50: "> 30 µM"
- COMPOUND: "O=[N+]([O-])c1ccc(O)c2ncccc12"
  AC50: "> 30 µM"
- COMPOUND: "CO[C@H]1/C=C/O[C@@]2(C)Oc3c(C)c(O)c4c(O)c(c(/C=N/N5CCN(C)CC5)c(O)c4c3C2=O)NC(=O)/C(C)=C\\C=C\\[C@H](C)[C@H](O)[C@@H](C)[C@@H](O)[C@@H](C)[C@H](OC(C)=O)[C@@H]1C"
  AC50: "> 10 µM"
- COMPOUND: "CCN(CC)C(=O)Nc1ccc(OCC(O)CNC(C)(C)C)c(C(C)=O)c1 (centres undefined)"
  AC50: "> 30 µM"
- COMPOUND: "CC(=O)[C@@]1(O)CC[C@H]2[C@@H]3C=C(Cl)C4=CC(=O)[C@@H]5C[C@@H]5[C@]4(C)[C@H]3CC[C@@]21C"
  AC50: "> 10 µM"
- COMPOUND: "COCC1=C(C(=O)O)N2C(=O)[C@@H](NC(=O)/C(=N\\OC)c3csc(N)n3)[C@H]2SC1"
  AC50: "> 30 µM"

For 5-hydroxytryptamine receptor 1A (Homo sapiens, UniProt P08908), give AC50 of the listed compound: CC(C)NCC(O)c1ccc(O)c(O)c1 (centres undefined)
> 10 µM

For 5-hydroxytryptamine receptor 1A (Homo sapiens, UniProt P08908), give AC50 of the listed compound: Clc1ccc(C(Cn2ccnc2)OCc2ccsc2Cl)c(Cl)c1 (centres undefined)
> 30 µM

For 5-hydroxytryptamine receptor 1A (Homo sapiens, UniProt P08908), give AC50 of the listed compound: CC(C)N(CCC(C(N)=O)(c1ccccc1)c1ccccn1)C(C)C (centres undefined) [DISOPYRAMIDE]
> 10 µM

For 5-hydroxytryptamine receptor 1A (Homo sapiens, UniProt P08908), give AC50 of the listed compound: O=C1C(CC[S+]([O-])c2ccccc2)C(=O)N(c2ccccc2)N1c1ccccc1 (centres undefined)
> 10 µM

For 5-hydroxytryptamine receptor 1A (Homo sapiens, UniProt P08908), give AC50 of the listed compound: CCN1CCCC1CNC(=O)c1cc(S(=O)(=O)CC)c(N)cc1OC (centres undefined) [AMISULPRIDE]
> 30 µM

For 5-hydroxytryptamine receptor 1A (Homo sapiens, UniProt P08908), give AC50 of the listed compound: C[C@]12CCC(=O)C(O)=C1CC[C@@H]1[C@@H]2CC[C@]2(C)C(=O)CC[C@@H]12
> 30 µM

For 5-hydroxytryptamine receptor 1A (Homo sapiens, UniProt P08908), give AC50 of the listed compound: CC(C)c1nc(N(C)S(C)(=O)=O)nc(-c2ccc(F)cc2)c1/C=C/[C@@H](O)C[C@@H](O)CC(=O)O
> 30 µM

For 5-hydroxytryptamine receptor 1A (Homo sapiens, UniProt P08908), give AC50 of the listed compound: CCOC(=O)c1cncn1[C@H](C)c1ccccc1 [ETOMIDATE]
> 10 µM

For 5-hydroxytryptamine receptor 1A (Homo sapiens, UniProt P08908), give AC50 of the listed compound: CN1CCN(C2=Nc3ccccc3Oc3ccc(Cl)cc32)CC1
> 10 µM

For 5-hydroxytryptamine receptor 1A (Homo sapiens, UniProt P08908), give AC50 of the listed compound: C=CC[C@@H]1/C=C(\C)C[C@H](C)C[C@H](OC)[C@H]2O[C@@](O)(C(=O)C(=O)N3CCCC[C@H]3C(=O)O[C@H](/C(C)=C/[C@@H]3CC[C@@H](O)[C@H](OC)C3)[C@H](C)[C@@H](O)CC1=O)[C@H](C)C[C@@H]2OC [TACROLIMUS ANHYDROUS]
> 30 µM

For 5-hydroxytryptamine receptor 1A (Homo sapiens, UniProt P08908), give AC50 of the listed compound: CCCC(CCC)C(=O)O
> 10 µM

For 5-hydroxytryptamine receptor 1A (Homo sapiens, UniProt P08908), give AC50 of the listed compound: N[C@@H](CC(=O)N1CCn2c(nnc2C(F)(F)F)C1)Cc1cc(F)c(F)cc1F
> 30 µM

For 5-hydroxytryptamine receptor 1A (Homo sapiens, UniProt P08908), give AC50 of the listed compound: CCC(=O)O[C@H]1CC[C@H]2[C@@H]3CCC4=CC(=O)CC[C@]4(C)[C@H]3CC[C@]12C [TESTOSTERONE PROPIONATE]
> 10 µM

For 5-hydroxytryptamine receptor 1A (Homo sapiens, UniProt P08908), give AC50 of the listed compound: CN(C)CCC[C@@]1(c2ccc(F)cc2)OCc2cc(C#N)ccc21
> 30 µM

For 5-hydroxytryptamine receptor 1A (Homo sapiens, UniProt P08908), give AC50 of the listed compound: C#C[C@]1(OC(C)=O)CC[C@H]2[C@@H]3CCC4=C/C(=N/O)CC[C@@H]4[C@H]3CC[C@@]21CC [NORGESTIMATE]
> 30 µM

For 5-hydroxytryptamine receptor 1A (Homo sapiens, UniProt P08908), give AC50 of the listed compound: CC12CC3CC(C)(C1)CC(N)(C3)C2 [MEMANTINE]
> 10 µM

For 5-hydroxytryptamine receptor 1A (Homo sapiens, UniProt P08908), give AC50 of the listed compound: CCN1CCN(Cc2ccc(Nc3ncc(F)c(-c4cc(F)c5nc(C)n(C(C)C)c5c4)n3)nc2)CC1
> 30 µM

For 5-hydroxytryptamine receptor 1A (Homo sapiens, UniProt P08908), give AC50 of the listed compound: OC1(c2ccc(Cl)cc2)c2ccccc2C2=NCCN21 (centres undefined)
> 30 µM
